// data source = ChEMBL document CHEMBL3885861

In this section we review reported BUN values for a set of compounds.
- Species: Rattus norvegicus
- test_method_notes: Open TG-GATES - Regimen: Daily Repeat
- Format: toxicity, organism-based, Sprague-Dawley
- Set-up: regimen Daily Repeat, gender Male, age 6 weeks
- test_settings: in vivo, po, 300 mg/kg, […], tissue Plasma, route gavage, dose level Middle, time 7 day
Return type: number; implicit unit mg/dL.

Quick note, BUN for COc1ccc2[nH]c([S+]([O-])Cc3ncc(C)c(OC)c3C)nc2c1 (stereo not given) landed at 17.2

###

- Species on record: Rattus norvegicus
- test_method_notes: Open TG-GATES - Regimen: Single
- Assay type: toxicity, organism-based, Sprague-Dawley
- Design: regimen Single, gender Male, age 6 weeks
- test_settings: in vivo, po, 300 mg/kg, 6 h, tissue Blood, route gavage, dose level Middle
assay_endpoint: RBC (x10_4/ul)
Your answer should be a plain number; it is taken to be in x10_4/ul.

Worked set:
compound="NC(N)=Nc1nc(CSCCC(N)=NS(N)(=O)=O)cs1 [FAMOTIDINE]" measurement_units=x10_4/ul value=604.4
compound="COC1=CC(=O)C[C@@H](C)[C@]12Oc1c(Cl)c(OC)cc(OC)c1C2=O [GRISEOFULVIN]" measurement_units=x10_4/ul value=588.6
compound="COc1ccc2[nH]c([S+]([O-])Cc3ncc(C)c(OC)c3C)nc2c1 (centres undefined) [OMEPRAZOLE]" measurement_units=x10_4/ul value=620.6

Please turn your attention to the following entry.
# compound CCOC(=O)CCC(=O)O[C@H]1[C@H](O[C@@H]2[C@@H](C)[C@H](O[C@H]3C[C@@](C)(OC)[C@@H](O)[C@H](C)O3)[C@@H](C)C(=O)O[C@H](CC)[C@@](C)(O)[C@H](O)[C@@H](C)C(=O)[C@H](C)C[C@@]2(C)O)O[C@H](C)C[C@@H]1N(C)C [ERYTHROMYCIN ETHYLSUCCINATE] ; its RBC = 627.8
